# EXPERIMENTAL_DETAILS: Cytotoxicity against bovine chondrocytes at 10 mM after 96 hrs by MTT cell viability assay
# Format: cell-based, Bos taurus
# STATED_CONDITIONS: cattle, 10000 µM
QUANTITY: Activity (%)
Answers are plain numbers, in %.

Below, 3 compounds whose answers are already recorded.
COMPOUND	MEASUREMENT_UNITS	Activity
COc1ccc(OP(=O)(OC[C@H]2OC(O)[C@H](NC(C)=O)[C@@H](O)[C@@H]2O)N2CCC[C@H]2C(=O)OCc2ccccc2)cc1 (some centres undefined)	%	63
COc1ccc(OP(=O)(N[C@@H](C)C(=O)OCc2ccccc2)OC[C@H]2OC(O)[C@H](NC(C)=O)[C@@H](O)[C@@H]2O)cc1 (some centres undefined)	%	85
CC[C@H](C)[C@H](NP(=O)(OC[C@H]1OC(O)[C@H](NC(C)=O)[C@@H](O)[C@@H]1O)Oc1ccc(OC)cc1)C(=O)OCc1ccccc1 (some centres undefined)	%	56

Could you now consider this next compound?
Could you share which Activity value was measured for COc1ccc(OP(=O)(N[C@H](C(=O)OCc2ccccc2)C(C)C)OC[C@H]2OC(O)[C@H](NC(C)=O)[C@@H](O)[C@@H]2O)cc1 (some centres undefined) ?
40

# credit: ChEMBL document CHEMBL1140054
